Cited source for all entries: patent US20260250278A1

- system: mineralocorticoid receptor (MR) (Homo sapiens, UniProt P08235)
- Sequence (P08235 726-964 limits assumed, species assumed): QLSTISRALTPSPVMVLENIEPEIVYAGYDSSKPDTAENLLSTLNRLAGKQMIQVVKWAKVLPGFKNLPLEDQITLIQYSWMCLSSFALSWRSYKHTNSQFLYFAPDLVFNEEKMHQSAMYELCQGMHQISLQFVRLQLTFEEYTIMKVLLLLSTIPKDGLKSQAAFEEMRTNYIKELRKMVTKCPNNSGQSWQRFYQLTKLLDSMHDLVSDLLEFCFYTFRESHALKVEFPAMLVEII
- measurement.description: MR Gal4-LBD luciferase reporter gene assay in HEK293T cells (antagonism of 0.8 nM aldosterone)
pIC50: −log10 of the molar value.
property.name: pIC50

Worked examples, 8 compounds total:
[[record]]
compound = "CCOc1ncc(C)c2c1C(c1ccc(C#N)c3c1OCO3)C(C(N)=O)=C(C)N2 (stereo not drawn)"
property_name = "pIC50"
reported = 7.34

[[record]]
compound = "CCOc1ncc(C)c2c1C(c1ccc(C#N)c3c1OCCC3)C(C(N)=O)=C(C)N2 (stereo not drawn)"
property_name = "pIC50"
reported = 7.67

[[record]]
compound = "CC1=C(C(N)=O)C(c2ccc(C#N)c3c2OCC3)c2c(OC(F)F)ncc(C)c2N1 (stereo not drawn)"
property_name = "pIC50"
reported = 7.72

[[record]]
compound = "CCOc1nc2ccsc2c2c1C(c1ccc(C#N)cc1OC)C(C(N)=O)=C(C)N2 (stereo not drawn)"
property_name = "pIC50"
reported = 6.63

[[record]]
compound = "CCOc1ncc(C)c2c1C(c1ccc(C#N)cc1OC)C(c1nnco1)=C(C)N2 (stereo not drawn)"
property_name = "pIC50"
reported = 7.31

[[record]]
compound = "CCOc1nc2ccccc2c2c1C(c1ccc(C#N)cc1OC)C(C#N)=C(C)N2 (stereo not drawn)"
property_name = "pIC50"
reported = 6.67

[[record]]
compound = "COc1cc(C#N)ccc1C1C(C#N)=C(C)Nc2sc3ccccc3c21 (stereo not drawn)"
property_name = "pIC50"
reported = 7.69

[[record]]
compound = "CCOc1ncc(C)c2c1C(c1ccc(C#N)cc1OC)C(c1ncco1)=C(C)N2 (stereo not drawn)"
property_name = "pIC50"
reported = 6.72


(P) CC1=C(C(N)=O)C(c2ccc(C#N)c3c2OCC3)c2c(OCC3CC3)ncc(C)c2N1 (stereo not drawn)
(Q) COc1cc(C#N)ccc1C1C(C#N)=C(C)Nc2c1ccc1c2CCC1 (stereo not drawn)
Query: For the pair P and Q , which entry has the numerically smaller recorded pIC50? // output: label of the selected item
Result: Q
